measurement_label: melting point

1) Cc1cc(NC(=O)Cc2ccccc2C(F)(F)F)cc(C)c1S(=O)(=O)C[N+](=O)[O-] = 203 to 204 °C
2) CC(C)NC1=NS(=O)(=O)c2ccc(F)cc2N1 = 266 to 269 °C
3) CCCCc1ccc(-c2c(C)[nH]c(=O)n2C)cc1 = 180 °C
4) CN(C(=O)c1ccccc1OCC(=O)O)c1ccccc1 = 148 °C

* * *

Below, each of the compounds is paired with its reported melting point value.
measurement_label: melting point

1. COc1cc(-c2oc3c(OC)cc(/C=C/CO)cc3c2C)ccc1O = 180 to 183 °C
2. Cc1cc(C)c(COc2cccnc2NC(=N)Nc2ccc(Cl)cc2)c(C)c1 = 169 to 171 °C
3. Cc1cnc(CNC(=O)c2sc(N3CCN(Cc4ccc(F)cc4)C3=O)nc2C)cn1 = 191 to 193 °C
4. CC(C)c1nc2cc(NC(=O)c3c(C(=O)N4CCC4)cnn3C)ccn2n1 = 226 to 227 °C
5. CCC(C#N)c1ccc(Cl)c2nc3n(c12)CCCN3c1ccc(Cl)cc1Cl (stereo not given) = 220 to 221 °C
6. O=C(c1ccc(Cl)cc1)c1ccc(CS(=O)(=O)C(F)F)cc1 = 154 to 157 °C
7. CC(C)(C)OC(=O)Nc1ccc(O)c2ccccc12 = 172 to 174 °C
8. C#CCn1c(=O)c2c(nc(C#Cc3ccc(OC)c(OC)c3)n2C)n(CC)c1=O = 222 °C
9. O=C(O)CN(CC(=O)O)CC(CO)C(=O)O (stereo not given) = 195 °C
10. Nc1ccc2c(c1)CC(NS(=O)(=O)c1ccc(Cl)cc1)C2 (stereo not given) = 145 to 147 °C
11. N#CCCNC1CCCC1 = 81 to 84 °C
12. Fc1ccc2nc(S)sc2c1 = 224 to 226 °C
13. CC(C)Cc1csc2[nH]c(=O)c(=O)[nH]c12 = > 270 °C
14. COCC1CN(c2ccc3cc(OCCS(C)(=O)=O)ccc3c2)C(=O)O1 (stereo not given) = 128 to 129 °C
15. CC(=O)OCC1Cc2cc(S(=O)(=O)N(C)C)c(Cl)c(Cl)c2O1 (stereo not given) = 159 to 160 °C

* * *

measurement_label: melting point

1) CC(C)(C)NC(=O)C(Cc1ccc(OCc2ccccc2)cc1)NC(=O)c1ccc(C(C)(C)C)cc1 (configuration not stated) = 124 to 131 °C
2) CCOC(=O)CC(=O)c1ccc(-c2ccc(Cl)cc2)o1 = 46 to 47 °C
3) O=C(CCCO)NCc1cccc(Nc2n[nH]c3ncnc(Nc4cccc(Cl)c4)c23)c1 = 182 to 184 °C
4) Cc1cc(NC(=O)C(C)(O)COc2ccc(CCF)cc2)ccc1[N+](=O)[O-] (configuration not stated) = 102 to 105 °C
5) CCCCCCCCCCCCOc1ccc(C(C)=O)o1 = 66 to 67 °C
6) CN1CCN(CC2CCCCN2CC(=O)N2c3ccccc3C(=O)Nc3cccnc32)CC1 (configuration not stated) = 203 to 205 °C
7) CCCCCCCCCCc1cnc(-c2ccc(OCC(C)(C#N)CCCC)cc2)nc1 (configuration not stated) = 43 °C

* * *

measurement_label: melting point

1) CN(C)c1ccc(NC(=O)N(C[C@H]2CCC[C@H](CN(C(=O)Nc3ccc(N(C)C)cc3)C3CCCCCC3)C2)C2CCCCCC2)cc1 (relative stereo) = 109 to 114 °C
2) Cc1c(C)c2c(c(C)c1O)CCC(C)(CCOc1ccc(CC3SC(=O)NC3=O)cc1)O2 (stereo unspecified) = 152 to 154 °C
3) CN(Cc1ccccc1)c1ncnc2c(N3CCS(=O)CC3)nc(N3CCNCC3)nc12 = 214 to 215 °C
4) O=C(O)C(Cc1ccccc1)Oc1ccc2cc(-c3csc(-c4ccccc4)n3)ccc2c1 (stereo unspecified) = 154 to 160 °C
5) Clc1ccc2c(c1)CNC2 = 49 to 50 °C
6) CCn1c(-c2cccnc2)nc(-c2ccncc2)c1-c1ccc(Cl)cc1 = 248 to 250 °C
7) Cc1cccc(-c2ccc(-c3nnc(-c4cccc(C(=O)O)c4)o3)cc2)c1 = 240 to 242 °C
8) CCC12CCC3C4CCC(=O)C=C4CCC3C1CCC2=O (stereo unspecified) = 156 to 158 °C
9) COc1ccc2ccc(N3C(=O)c4ccccc4C3OC(=O)COCC(C)C)nc2n1 (stereo unspecified) = 114 °C
10) CCOC(=O)c1csc(C)c1S(=O)(=O)NC(=O)n1nc(OC)n(C)c1=O = 176 °C
11) Cc1cccc2[nH]c(=O)n3ccnc3c12 = 308 to 310 °C
12) COC1=CCC2=C(CC[C@@H]3[C@@H]2CC[C@@]2(C)[C@H]3CCC23CC(O)CO3)C1 (stereo partly specified) = 152 to 155 °C
13) CC(C)(C)Cc1ccc(C(=O)O)cc1 = 191 to 193 °C
14) O=[N+]([O-])c1ccc(C=Cc2nccn2Cc2ccccn2)o1 = 141 to 142 °C
15) c1cc(-c2ccc3[nH]cc4c3c2C[C@@H](N(CC2CC2)CC2CC2)C4)on1 = 146 to 147 °C
16) CCOC(=O)Cn1cc(C(=O)OCC)c(=O)c2ccccc(=O)c21 = 152 to 154 °C
17) COc1ccc(C(=O)Nc2cc(-c3c(-c4cccc(C)c4)nc4ccc(N(C)C)nn34)ccn2)cc1 = 193 to 194 °C
18) CC(=O)Nc1ccc(S(=O)(=O)Nc2onc(C)c2Br)cc1 = 208 to 210 °C
19) CCC1(C)OC1(C#N)C(=O)O (stereo unspecified) = 139 to 140 °C
20) COc1cc(OC)c(/C=C/S(=O)(=O)Cc2ccc(OC)c(NC(C)C(=O)O)c2)c(OC)c1 (stereo unspecified) = 176 to 180 °C
21) CC(=O)c1cc(Cl)cc(Oc2ncccc2C(=O)NCc2ccc(C(C)(C)O)cc2)c1 = 110 to 112 °C
22) O=C(O)CCCCCCCCC(=O)c1ccccc1O = 85 to 87 °C
23) COc1cc2c(cc1OC)C(Cc1ccc([N+](=O)[O-])cc1)NCC2 (stereo unspecified) = 134 to 136 °C
24) CCCC(O)P(=O)(O)CCCN (stereo unspecified) = 188 °C
25) N#CCCN1CCN(P(=S)(N2CCN(CCC#N)CC2)N2CCN(CCC#N)CC2)CC1 = 122 °C
26) O=S(=O)(NCCCCOc1ccc(-n2ccnc2)cc1)c1ccccc1 = 110 to 111 °C
27) Cn1cc(-c2ccccc2)c(=O)c(-c2ccc3ccccc3c2)c1 = 101 to 105 °C
28) CCOC(=O)c1nc(C2CC2)nc(NCc2ccccc2)c1Cl = 59 to 61 °C
29) COc1ccc(C(=O)Nc2c(Cl)cncc2Cl)c2c1[nH]c1ccc(Cl)cc12 = > 359 °C
30) C=CCSCC(N)C(=O)O (stereo unspecified) = 212 to 213 °C
31) O=C(c1ccc(Br)cc1)C(Br)C(Br)c1cccc(Br)c1 (stereo unspecified) = 150 to 152 °C
